- study.system: Tyrosinase (EC 1.14.18.1) from mushroom (Agaricus bisporus)
- Construct: purchased Sigma Chemical Co. (St. Louis, MO, USA)
- assay.explanation: Tyrosinase inhibitory assay (L-DOPA oxidation, absorbance at 475 nm)
- Assay type: biochemical
attribute.measured: IC50 (µM)
Please give a number only; it is taken to be in µM.

Input line: Please look at O=C1C[C@@H](c2ccc(O)cc2)Oc2cc(O)ccc21 [Compound 5, liquiritigenin] and tell me its recorded IC50 on Tyrosinase (EC 1.14.18.1) from mushroom (Agaricus bisporus).
Output line: 22

---

- study.system: Tyrosinase (EC 1.14.18.1) from mushroom (Agaricus bisporus, UniProt C7FF04)
- Construct: purchased Sigma Chemical Co. (St. Louis, MO, USA)
- Sequence (C7FF04 1-392 limits assumed): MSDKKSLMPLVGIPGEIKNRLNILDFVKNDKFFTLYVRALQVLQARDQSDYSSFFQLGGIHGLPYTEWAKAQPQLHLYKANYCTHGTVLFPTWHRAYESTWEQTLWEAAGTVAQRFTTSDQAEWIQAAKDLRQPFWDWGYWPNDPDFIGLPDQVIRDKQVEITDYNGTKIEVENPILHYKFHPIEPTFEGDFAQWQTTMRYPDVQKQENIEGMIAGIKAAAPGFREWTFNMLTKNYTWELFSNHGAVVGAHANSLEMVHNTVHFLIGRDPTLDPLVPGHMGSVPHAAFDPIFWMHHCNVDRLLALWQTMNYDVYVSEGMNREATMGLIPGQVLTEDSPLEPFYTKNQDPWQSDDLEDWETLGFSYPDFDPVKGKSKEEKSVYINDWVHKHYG
- assay.explanation: Tyrosinase inhibitory assay (L-DOPA oxidation, absorbance at 475 nm)
- Format: biochemical
- condition.context: mushroom tyrosinase, substrate L-DOPA, 0.1 M phosphate buffer pH 6.8, room temperature; read-out: Tyrosinase inhibitory activity IC50
- Description: Tyrosinase (EC 1.14.18.1) from mushroom (3933 U/mL) and L-dihydroxyphenylalanine (L-DOPA) were obtained from Sigma Chemical Co. (St. Louis, MO, USA). […] Other chemicals were of the highest grade available. All the samples were first dissolved in DMSO and used for the actual experiment at concentrations of […] (or µM for pure compounds). […] The assay mixture was incubated at room temperature for 7 min, and the absorbance at 475 nm was measured with a Shimadzu UV-1800 spectrophotometer. […]
attribute.measured: pIC50
Note on units: pIC50 is unitless, being -log10 of a concentration expressed in mol/L.

compound	study.system	measured.value
C/C(=C\Cc1c(O)cc2oc(-c3ccc(O)cc3O)cc(=O)c2c1O)COC(=O)/C=C/c1ccc(O)cc1 [Compound 1, artocaepin E]	Tyrosinase (EC 1.14.18.1) from mushroom (Agaricus bisporus, UniProt C7FF04)	5.17
COc1cc(O)c2c(c1)O[C@H](c1ccc(O)cc1O)CC2=O	Tyrosinase (EC 1.14.18.1) from mushroom (Agaricus bisporus, UniProt C7FF04)	5.70

// moving on: another record for pIC50
Input line: Output pIC50 of O=C1CC(c2ccc(O)cc2O)Oc2cc(O)cc(O)c21 (stereo not drawn)
Output line: 5.12

---

- study.system: Tyrosinase (EC 1.14.18.1) from mushroom (Agaricus bisporus, UniProt C7FF04)
- Construct: purchased Sigma Chemical Co. (St. Louis, MO, USA)
- assay.explanation: Tyrosinase inhibitory assay (L-DOPA oxidation, absorbance at 475 nm)
- Assay type: biochemical
- condition.context: mushroom tyrosinase, substrate L-DOPA, 0.1 M phosphate buffer pH 6.8, room temperature; read-out: Tyrosinase inhibitory activity IC50
attribute.measured: IC50

Some compounds with known IC50 results, for comparison:
compound	IC50
O=C1c2c(O)cc(O)cc2O[C@H](c2ccc(O)cc2O)[C@H]1O [Compound 7, dihydromorin]	> 50 µM
C/C(=C\Cc1c(O)ccc2c1O[C@H](c1ccc(O)cc1)CC2=O)CO [Compound 2, artocaepin F]	> 50 µM

// moving on: another record for IC50
Input line: Output IC50 of `O=c1cc(-c2ccc(O)cc2O)oc2cc(O)cc(O)c12`
Output line: > 50 µM
